# Kd values compiled below
target_desc: Bone morphogenetic protein receptor type-1B (Homo sapiens); also: in the data inactive means no Kd found up to 30 µM
Sequence (O00238 whole entry): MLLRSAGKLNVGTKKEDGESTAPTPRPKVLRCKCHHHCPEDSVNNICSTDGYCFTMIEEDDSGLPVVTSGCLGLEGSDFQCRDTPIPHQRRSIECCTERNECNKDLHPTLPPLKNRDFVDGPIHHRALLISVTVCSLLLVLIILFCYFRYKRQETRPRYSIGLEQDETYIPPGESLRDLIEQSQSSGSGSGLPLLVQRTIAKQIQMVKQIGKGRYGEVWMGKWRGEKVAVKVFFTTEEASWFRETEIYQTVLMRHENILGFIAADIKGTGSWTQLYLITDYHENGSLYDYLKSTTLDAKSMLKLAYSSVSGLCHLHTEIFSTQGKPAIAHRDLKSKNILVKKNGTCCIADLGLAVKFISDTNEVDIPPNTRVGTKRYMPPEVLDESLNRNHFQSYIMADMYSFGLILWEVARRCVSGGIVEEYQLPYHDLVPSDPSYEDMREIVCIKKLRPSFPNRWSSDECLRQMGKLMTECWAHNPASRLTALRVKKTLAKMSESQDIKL
Calls of active or inactive are those of the source.

Observe how each entry below is paired with its result.
Cc1ccc(C(=O)Nc2ccc(Oc3cc4cnn(C)c4cc3-c3cn[nH]c3)c(F)c2)c(=O)n1-c1ccc(F)cc1	> 30 µM (inactive)
Cc1cc(Nc2nc(N[C@@H](C)c3ncc(F)cn3)ncc2Cl)n[nH]1	> 30 µM (inactive)
C=CC(=O)Nc1cccc(Nc2nc(Nc3ccc(N4CCN(C(C)=O)CC4)cc3OC)ncc2C(F)(F)F)c1	> 30 µM (inactive)

Please look at the following molecule next.
Q. // returns reported Kd for input Cn1cc(-c2[nH]c3cc(NC(=O)[C@H](N)C4CCCCC4)cc4c3c2C=NNC4=O)cn1
A. 2.01 µM (active)
